For human MAT2A enzyme (Homo sapiens (Human)), measured pIC50 is reported for the entries below.
pIC50: −log10 of the molar value.
assay_metric: pIC50

Worked examples follow.
| compound_structure | endpoint_value |
| --- | --- |
| COC(=O)c1c(N)c2ccc(C(F)(F)F)cc2n(-c2ccc3ccccc3c2)c1=O | 8.98 |
| COC(=O)c1c(N)c2ccc(Br)cc2n(-c2cccc3cnccc23)c1=O | 8.52 |
| COC(=O)c1c(N)c2ccc(Br)nc2n(-c2ccc(N)cc2Cl)c1=O | 9.05 |
| COC(=O)c1c(N)c2ccc(Br)cc2n(-c2cccc3c2COC3)c1=O | 8.08 |
| [2H]C([2H])([2H])OC(=O)c1c(N)c2ccc(OC(F)(F)F)cc2n(-c2ccc(N)cc2)c1=O | 8.88 |
| Nc1c(C(=O)OC2CC2)c(=O)n(-c2ccccc2)c2cc(I)ccc12 | 8.34 |

I: COC(=O)c1c(N)c2ccc(C(F)(F)F)cc2n(-c2ccc(OC)nc2)c1=O
II: COC(=O)c1c(N)c2ccc(C(F)(F)F)nc2n(-c2ccc(Cl)cc2)c1=O
IN: Could you point out whether the larger pIC50 belongs to I or to II ? Lab log: write the label of the selected item as the result.
OUT: II

====

For human MAT2A enzyme (Homo sapiens (Human), UniProt P31153), measured IC50 is reported for the entries below.
assay_metric: IC50 (nM)

| compound | unit_spec | IC50 |
| --- | --- | --- |
| COC(=O)c1c(N)c2ccc(C(F)(F)F)cc2n(-c2ccc(C)cc2C)c1=O | nM | 3.12 |
| COC(=O)c1c(N)c2ccc(C(F)(F)F)cc2n(-c2ccc3nc[nH]c3c2)c1=O | nM | 1.71 |
| COC(=O)c1c(N)c2ccc(C(F)(F)F)cc2n(-c2cn[nH]c2)c1=O | nM | 2.87 |
| CCOC(=O)c1c(N)c2ccc(C(F)(F)F)cc2n(-c2ccc([C@@H](C)O)cc2)c1=O | nM | 0.92 |
| COC(=O)c1c(N)c2ccc(C(F)(F)F)cc2n(-c2ccc(OC)cc2C)c1=O | nM | 4.03 |
| CCc1ccc(-n2c(=O)c(C(=O)OC)c(N)c3ccc(C(F)(F)F)cc32)cc1 | nM | 1.93 |

P: COC(=O)c1c(N)c2ccc(C)cc2n(-c2ccc(C(C)O)cc2)c1=O (centres unmarked)
Q: COC(=O)c1c(N)c2ccc(C(F)F)cc2n(-c2ccc([C@@H](C)O)cc2)c1=O
IN: Could you point out whether the larger IC50 belongs to P or to Q ? Lab log: write the label of the selected item as the result.
OUT: P

====

For human MAT2A enzyme (Homo sapiens (Human)), measured pIC50 is reported for the entries below.
pIC50: −log10 of the molar value.
assay_metric: pIC50

Worked examples follow.
| compound | tested_system | pIC50 |
| --- | --- | --- |
| COC(=O)c1c(N)c2ccc(C)cc2n(-c2cccc3cnccc23)c1=O [Example 205] | human MAT2A enzyme (Homo sapiens (Human)) | 8.35 |
| COC(=O)c1c(N)c2ccc(C(F)(F)F)cc2n(-c2ccc(I)cc2)c1=O [Example 125] | human MAT2A enzyme (Homo sapiens (Human)) | 8.57 |
| COC(=O)c1c(N)c2ccc(Br)cc2n(-c2ccc(Cl)c3cnccc23)c1=O [Example 176] | human MAT2A enzyme (Homo sapiens (Human)) | 8.56 |

a: COC(=O)c1c(N)c2ccc(Br)nc2n(-c2cnc(Cl)cc2C)c1=O [Example 249]
b: COC(=O)c1c(N)c2ccc(C(F)(F)F)nc2n(-c2ccc(C(C)O)cc2)c1=O (centres unmarked) [Example 303]
IN: Smaller pIC50 value? Options are a and b Lab log: write the label of the selected item as the result.
OUT: a
(a: 8.52, b: 9.04)

====

test: In vivo pharmacokinetic study in CD-1 mice; settings: male, mouse, single oral gavage dose of 10 mg/kg, plasma
assay_metric: AUC (ng·h/mL)

Worked examples follow.
| compound_structure | AUC / ng·h/mL |
| --- | --- |
| COC(=O)c1c(N)c2ccc(C(F)(F)F)cc2n(-c2ccccc2C)c1=O | 37000 |
| COC(=O)c1c(N)c2ccc(OC(F)(F)F)cc2n(-c2ccc(N)cc2)c1=O | 468000 |
| COC(=O)c1c(N)c2ccc(I)cc2n(-c2cccc3cnccc23)c1=O | 24600 |

a: COC(=O)c1c(N)c2ccc(Cl)cc2n(-c2ccccc2)c1=O
b: COC(=O)c1c(N)c2ccc(C(F)(F)F)nc2n(-c2cccc3cnccc23)c1=O
IN: Could you point out whether the larger AUC belongs to a or to b ? Lab log: write the label of the selected item as the result.
OUT: a
(a: 44200 ng·h/mL, b: 24500 ng·h/mL)

====

experiment: In vivo pharmacokinetic study in CD-1 mice; conditions: male, mouse, single oral gavage dose of 10 mg/kg, plasma
assay_metric: Tmax (h)

a: COC(=O)c1c(N)c2ccc(I)cc2n(-c2cccc3cnccc23)c1=O [Example 199]
b: COC(=O)c1c(N)c2ccc(C(F)(F)F)nc2n(-c2ccc(N)cc2Cl)c1=O [Example 325]
c: COC(=O)c1c(N)c2ccc(Cl)cc2n(-c2ccccc2)c1=O [Example 15]
IN: Lab note: rank above entries, Tmax ascending. # output: labels, in the requested order
OUT: b, a, c

====

Counter-ions that a name gives are not always drawn.
For human MAT2A enzyme (Homo sapiens (Human), UniProt P31153), measured IC50 is reported for the entries below.
assay_metric: IC50 (nM)

A: COC(=O)c1c(N)c2ccc(I)cc2n(Cc2ccccc2)c1=O
B: COC(=O)c1c(N)c2ccc(C(F)(F)F)cc2n(-c2cccc3c[nH]nc23)c1=O
IN: Smaller IC50 value? Options are A and B Lab log: write the label of the selected item as the result.
OUT: A

P: COC(=O)c1c(N)c2ccc(Br)cc2n(-c2ccc(N)c3cnccc23)c1=O
Q: COC(=O)c1c(N)c2ccc(C(F)(F)F)cc2n(-c2ccc(OC)cc2F)c1=O
IN: Smaller IC50 value? Options are P and Q Lab log: write the label of the selected item as the result.
OUT: P
(P: 2.59 nM, Q: 9.95 nM)

A: COC(=O)c1c(N)c2ccc(Br)cc2n(-c2cnc(Cl)cc2C)c1=O
B: COC(=O)c1c(N)c2ccc(OC(F)F)cc2n(-c2ccc([C@@H](C)O)cc2)c1=O
C: COC(=O)c1c(N)c2ccc(C(F)(F)F)nc2n(-c2ccc3ccncc3c2)c1=O
D: COC(=O)c1c(N)c2ccc(C(F)(F)F)nc2n(-c2ccc(C)nc2)c1=O
E: COC(=O)c1c(N)c2ccc(Br)nc2n(-c2ccc(Cl)c3cnccc23)c1=O
IN: Please list the entries, largest IC50 first. # output: labels, in the requested order
OUT: A, D, E, C, B
(A: 4.67 nM, D: 2.17 nM, E: 1.04 nM, C: 0.7 nM, B: 0.46 nM)

A: CNc1ccc(-n2c(=O)c(C(=O)OC)c(N)c3ccc(C(F)(F)F)cc32)cc1 [Example 115, hydrochloride]
B: COC(=O)c1c(N)c2ccc(C(F)(F)F)cc2n(-c2ccc(OC(F)F)cc2)c1=O
IN: Could you point out whether the larger IC50 belongs to A or to B ? Lab log: write the label of the selected item as the result.
OUT: A

1: COC(=O)c1c(N)c2ccc(Br)cc2n(-c2ccc3nccnc3c2)c1=O
2: COC(=O)c1c(N)c2ccc(Br)cc2n(-c2ccccc2)c1=O
IN: Smaller IC50 value? Options are 1 and 2 Lab log: write the label of the selected item as the result.
OUT: 2
(2: 0.54 nM, 1: 2.07 nM)

====

molecular target: human MAT2A enzyme (Homo sapiens (Human)); experiment: In vitro enzymatic inhibition activity assay on MAT2A (PiColorLock phosphate detection); format: biochemical; details: purified human MAT2A 10 nM, ATP 50 μM, L-methionine 100 μM, 6 h at 23° C.; read-out: MAT2A inhibitory activity IC50
Sequence (P31153 whole entry): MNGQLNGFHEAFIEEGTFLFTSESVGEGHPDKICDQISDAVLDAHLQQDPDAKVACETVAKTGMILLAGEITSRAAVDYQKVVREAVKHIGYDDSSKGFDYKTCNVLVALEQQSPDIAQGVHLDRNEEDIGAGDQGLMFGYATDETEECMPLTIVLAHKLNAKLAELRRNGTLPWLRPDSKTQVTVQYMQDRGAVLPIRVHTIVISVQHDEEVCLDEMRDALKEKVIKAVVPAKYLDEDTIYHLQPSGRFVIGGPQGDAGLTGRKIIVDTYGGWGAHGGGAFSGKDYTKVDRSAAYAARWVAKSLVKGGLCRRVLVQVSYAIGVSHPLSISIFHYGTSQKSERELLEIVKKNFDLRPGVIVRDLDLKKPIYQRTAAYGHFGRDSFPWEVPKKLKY
pIC50: −log10 of the molar value.
assay_metric: pIC50

Worked examples follow.
| compound | pIC50 |
| --- | --- |
| COC(=O)c1c(N)c2ccc(Br)cc2n(-c2ccc(N)cc2)c1=O | 9.11 |
| C=Cc1ccc(-n2c(=O)c(C(=O)OC)c(N)c3ccc(C(F)(F)F)cc32)cc1 | 8.31 |
| COC(=O)c1c(N)c2ccc(C(C)(F)F)cc2n(-c2ccc([C@@H](C)O)cc2)c1=O | 8.87 |
| COC(=O)c1c(N)c2ccc(C3CC3)nc2n(-c2ccc(C(C)O)cc2)c1=O (stereo not shown) | 8.90 |

1: COC(=O)c1c(N)c2ccc(Br)cc2n(-c2ccc(OC)nc2)c1=O
2: COC(=O)c1c(N)c2ccc(C(F)(F)F)cc2n(-c2ccc3c(c2)CCC3O)c1=O (stereo not shown)
IN: Smaller pIC50 value? Options are 1 and 2 Lab log: write the label of the selected item as the result.
OUT: 2
(2: 8.05, 1: 8.74)
